System: TK-10 renal
Experiment: NCI-60 one-dose screen, 48 h (100 = growth as untreated, 0 = no growth, -100 = all killed)
Conditions: 10 µM unless noted
The panel holds about 83,000 compounds, 20% with a hit somewhere; the sample as a whole holds those more often.
# growth listing for each entry below
Record the value in %, omitting the unit from your answer.

Asked: Please list growth recorded for the compound CCCC(=O)Oc1ccc(/C(=C(/CC)Cc2ccccc2)c2ccc(OCCN3CCCC3)cc2)cc1
Given back: 87.8

Asked: Please list growth recorded for the compound O=S(=O)(NCCCNc1cc(-c2cn(-c3ccccc3)nc2-c2ccccc2)ccn1)c1ccc(C(F)(F)F)cc1
Given back: 72.3

Asked: Please list growth recorded for the compound CCCCCn1cnc2c(=S)nc[nH]c21
Given back: 116

Asked: Please list growth recorded for the compound NC(N)=Nc1ccc(S(=O)(=O)O)cc1
Given back: 108

Asked: Please list growth recorded for the compound O=C(/C=C/c1cc2ccccc2[nH]c1=O)/C=C/c1cc2ccccc2[nH]c1=O
Given back: -14.8

Source listed as PubChem BioAssay (NCI).
